Please respond with reported normalized growth for every item in the list.
test: chemical genetic growth profiling, strain panel (AID 1159580);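 further: tested at 20 µM; growth read once vehicle control cultures reached saturation at 30 °C; 1 = growth at the plate median or of vehicle wells; lower values mean less growth of the strain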; details: S. cerevisiae deletion strains, growth OD, locus YOL147C, strain pex11, active compounds read low
The campaign covered roughly 5,500 compounds. About 2,000 (36%) were called active. Inconclusive results (about 18%) are left out. This is one part of the list.
Answers are plain numbers.

// known answers, use as guide
| compound | numeric.readout |
| --- | --- |
| COc1c2c(c(CC=C(C)C)c3oc(=O)c(-c4ccc(O)cc4)c(O)c13)OC(C)(C)C=C2 | 0.481 |
| C[N+](C)(C)CCOP(=O)([O-])OP(=O)(O)OC[C@H]1OC(n2ccc(N)nc2=O)[C@H](O)[C@@H]1O (stereo partly drawn) | 1 |

Now examine the next entry.
Ask: Value lookup for normalized growth; key = `COc1ccc(-c2c(O)c3cc4c(c(CC=C(C)C)c3oc2=O)OC(C)(C)CC4)cc1`
Reply: 1

----------
assay: chemical genetic growth profiling, strain panel (AID 1159580); details: S. cerevisiae deletion strains, growth OD, locus YLR262C, strain YPT6, active compounds read low
The whole screen tested about 5,500 compounds, of which about 2,000 (36%) were called active. About 18% were inconclusive and are not listed. The list shows a part of the results.
Please respond with reported normalized growth for every item in the list.

| molecule | result |
| --- | --- |
| CC(=C(CCOP(=O)(O)O)SC(=O)c1ccccc1)N(C=O)Cc1cnc(C)nc1N | 0.991 (inactive) |

Dear reader, for each entry below, please note its normalized growth.
1. Cn1cc[nH]c1=S
2. O=C(O)C1c2ccccc2Oc2ccccc21
3. CCCCCC(C)N (stereo not drawn)
4. O=C(O)c1cc(=O)c2ccc(Cl)cc2[nH]1
5. NC(=O)c1ncn([C@@H]2O[C@H](CO)[C@@H](O)[C@H]2O)c1O
6. O=C(O)c1cnn(-c2ccccc2)c1C(F)(F)F

Reply:
0.995 (inactive)
1 (inactive)
1.05 (inactive)
1.05 (inactive)
0.988 (inactive)
0.955 (inactive)

----------
Please respond with reported normalized growth for every item in the list.
assay: chemical genetic growth profiling, strain panel (AID 1159580); conditions: S. cerevisiae deletion strains, growth OD, locus YLR370C, strain arc18, active compounds read low
The campaign covered roughly 5,500 compounds. About 2,000 (36%) were called active. Inconclusive results (about 18%) are left out. Some of the results follow.
Answers are plain numbers.

| compound | numeric.readout |
| --- | --- |
| O=C1CC(c2ccc(O)c(O)c2)Oc2cc(O)cc(O)c21 (stereo unspecified) | 1.01 |
| C/C=C(/C(=C/C)c1ccc(O)cc1)c1ccc(O)cc1 | 1 |
| O=C1C[C@@H](c2ccc(O)cc2)Oc2cc(O)cc(O)c21 | 0.957 |
| COc1ccc(C2CC(=O)c3ccc(OC)cc3O2)cc1 (stereo unspecified) | 0.947 |

Dear reader, for each entry below, please note its normalized growth.
1. COc1cc(O)c2c(=O)cc(C)oc2c1CC=C(C)C
2. COc1c(O)cc2oc3cc(O)c(CC=C(C)C)c(O)c3c(=O)c2c1CC=C(C)C

Reply:
[0.97, 0.982]

----------
test: chemical genetic growth profiling, strain panel (AID 1159580); settings: S. cerevisiae deletion strains, growth OD, locus YGL248W, strain PDE1, active compounds read low
The campaign covered roughly 5,500 compounds. About 2,000 (36%) were called active. About 18% were inconclusive and are not listed. The list shows a part of the results.
readout.label: normalized growth
Numbers only.

// known answers, use as guide
| molecule | normalized growth |
| --- | --- |
| COc1c(O)cc2oc3cc(O)c(CC=C(C)C)c(O)c3c(=O)c2c1CC=C(C)C | 0.67 |
| CN=C(NC#N)NCCSCc1nc[nH]c1C | 0.993 |
| CN1Cc2c(ccc3c2OCO3)C2C(O)Cc3cc4c(cc3C21)OCO4 (stereo unspecified) | 0.995 |
| COc1ccc(C2CC(=O)c3ccc(OC)cc3O2)cc1 (stereo unspecified) | 0.843 |

Dear reader, for each entry below, please note its normalized growth.
1. COc1c2c(c(CC=C(C)C)c3oc(=O)c(-c4ccc(O)cc4)c(O)c13)OC(C)(C)C=C2
2. CC(C)[N+](C)(CCOC(=O)C1c2ccccc2Oc2ccccc21)C(C)C
3. C=CC1=C(C(=O)O)N2C(=O)[C@@H](NC(=O)/C(=N/O)c3csc(N)n3)[C@H]2SC1
4. S=C=NCc1ccccc1
5. COc1ccc(C[C@H]2NC[C@H](O)[C@H]2OC(C)=O)cc1
6. CC(C)(C)CC(C)(C)c1ccc(OCCOCC[N+](C)(C)Cc2ccccc2)cc1
7. COc1cc(OC)c2c(c1)OC(c1ccccc1)CC2=O (stereo unspecified)

Reply:
0.763
0.997
0.989
0.0468
0.298
0.99
0.987

----------
Please respond with reported normalized growth for every item in the list.
test: chemical genetic growth profiling, strain panel (AID 1159580); details: S. cerevisiae deletion strains, growth OD, locus YGR078C, strain PAC10, active compounds read low
Screen size: about 5,500 compounds; about 2,000 (36%) were called active. Inconclusive results (about 18%) are left out. The list shows a part of the results.
Give bare numbers.

// known answers, use as guide
| compound | numeric.readout |
| --- | --- |
| NC/C=C/C(=O)O | 1.01 |
| CC(=O)/C(=C\Nc1ncccn1)S(=O)(=O)c1ccc(Cl)cc1 | 1 |
| NC1=C(c2ccccc2)C(=O)NC1=O | 0.998 |
| CC(=O)OCc1ccc(/C=C(\C#N)S(=O)(=O)c2ccc(Cl)cc2)o1 | 1.01 |
| NC(=O)N1c2ccccc2CC(=O)c2ccccc21 | 1.01 |

Now examine the next entry.
Ask: Value lookup for normalized growth; key = CCCC[N+]1(C)C2CC(OC(=O)[C@H](CO)c3ccccc3)CC1C1OC12 (stereo partly specified)
Reply: 0.989

----------
assay: chemical genetic growth profiling, strain panel (AID 1159580);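 further: tested at 20 µM; growth read once vehicle control cultures reached saturation at 30 °C; 1 = growth at the plate median or of vehicle wells; lower values mean less growth of the strain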; settings: S. cerevisiae deletion strains, growth OD, locus YBR279W, strain paf1, active compounds read low
In all, about 5,500 compounds went through this assay and about 2,000 (36%) were called active. Another 18% or so got no clear call; they are omitted. The list shows a part of the results.
readout.label: normalized growth
Give bare numbers.

// known answers, use as guide
| molecule | normalized growth |
| --- | --- |
| c1ccc(CC2=NCCN2)cc1 | 1.01 |
| COc1ccc2c(c1)OC[C@@H](Cc1ccc(OC)c(OC)c1)[C@@H]2O | 1 |
| Cc1c(N(C)C)c(=O)n(-c2ccccc2)n1C | 0.996 |
| c1ccc(CN(CC2=NCCN2)c2ccccc2)cc1 | 1.02 |
| COc1ccc2c(c1)OC[C@@H](Cc1ccc(OC)c(OC)c1)[C@H]2O | 1.02 |

Now examine the next entry.
Ask: Value lookup for normalized growth; key = COC1C(O)C(O)C(O)[C@@H](O)C1O (stereo partly specified)
Reply: 0.982

----------
assay: chemical genetic growth profiling, strain panel (AID 1159580);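 further: tested at 20 µM; growth read once vehicle control cultures reached saturation at 30 °C; 1 = growth at the plate median or of vehicle wells; lower values mean less growth of the strain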; conditions: S. cerevisiae deletion strains, growth OD, locus YNL298W, strain CLA4
Out of some 5,500 compounds screened, about 2,000 (36%) were called active. Inconclusive results (about 18%) are left out. No stated cut-off is given here; in the data, active means normalized growth mostly below about 0.91 (no sharp cut-off); inconclusive means no clear call, values can overlap the other calls; inactive means mostly above about 0.92. The list shows a part of the results.
Pick one: active, inactive

Ask: What call does the record list for `C=CCc1ccc2c(c1)OCO2` ?
Reply: inactive

Ask: What call does the record list for `CCCCCCCCCCCCC[N+](C)(C)Cc1ccccc1` ?
Reply: active

Ask: What call does the record list for CC(C)CC1C(=O)N2CCC[C@H]2C2(O)O[C@](NC(=O)C3C=C4c5cccc6[nH]c(Br)c(c56)C[C@H]4N(C)C3)(C(C)C)C(=O)N12 (some centres not stated) ?
Reply: inactive

----------
test: chemical genetic growth profiling, strain panel (AID 1159580);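 further: tested at 20 µM; growth read once vehicle control cultures reached saturation at 30 °C; 1 = growth at the plate median or of vehicle wells; lower values mean less growth of the strain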; settings: S. cerevisiae deletion strains, growth OD, locus YKR001C, strain vps1, active compounds read low
Out of some 5,500 compounds screened, about 2,000 (36%) were called active. About 18% were inconclusive and are not listed. The list shows a part of the results.
Please respond with reported normalized growth for every item in the list.
Give bare numbers.

| molecule | normalized growth |
| --- | --- |
| COC1C(O)C(O)C(O)[C@@H](O)C1O (stereo partly specified) | 1.05 |

Dear reader, for each entry below, please note its normalized growth.
1. COC(=O)[C@@H]1C(O)CC[C@H]2CN3CCc4c([nH]c5ccccc45)[C@@H]3C[C@@H]21 (stereo partly specified)
2. COC(=O)C1[C@H]2C[C@H]3c4[nH]c5ccccc5c4CCN3C[C@@H]2CC[C@@H]1O (stereo partly specified)
3. O=c1ccc2ccccc2o1
4. C/C=C(/C(=C/C)c1ccc(O)cc1)c1ccc(O)cc1
5. COc1ccc2cc1Oc1ccc(cc1)C[C@H]1c3cc(c(OC)cc3CCN1C)Oc1c(OC)c(OC)cc3c1[C@H](C2)N(C)CC3
6. CNc1ccccc1C(=O)N1CCc2c([nH]c3ccccc23)C1=O
7. O=C(O)c1cc(=O)c2cc(Cl)ccc2[nH]1

Reply:
1. 0.979
2. 1.02
3. 0.979
4. 0.531
5. 0.973
6. 0.941
7. 1.01

Values compiled from PubChem BioAssay AID1159580.
